# Assay explanation: protein stability index of a GFP-peptide fusion (GPS, HEK-293T) (PSI 1-6); higher = more stable;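 further: 24-mer peptide tiles fused after GFP, lentivirally expressed, FACS-sorted into six equal bins by GFP/DsRed ratio, decoded by Illumina sequencing, PSI is the read-weighted mean bin number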
# Condition: treatment: DMSO; c terminus: a fixed tail appended
Would you mind labelling by protein stability index? At or over 3 is y, under is n.

The following sequences have reported results that may help.
Decide: is the reported value of protein stability index for ELKRLVESRRQQILREFEELHRRL [TRIM39] equal to or greater than 3?
n

Decide: is the reported value of protein stability index for KVPREKDEPGKGGFWRIDPQYAER [FOXJ1] equal to or greater than 3?
y

Decide: is the reported value of protein stability index for SSGKNVTLLVCGKKAYDYFQAKKI [PDZK1] equal to or greater than 3?
n

Decide: is the reported value of protein stability index for VKVIMDALDERAKVLHEDKQTREQ [TRIM29] equal to or greater than 3?
y

Next, consider the following sequence.
Decide: is the reported value of protein stability index for LACGSNRFNKLGLDHLSLGEEPVP [NEK8] equal to or greater than 3?
y

====

# Assay explanation: protein stability index of a GFP-peptide fusion (GPS, HEK-293T) (PSI 1-6); higher = more stable
# Condition: treatment: DMSO; c terminus: a fixed tail appended
Would you mind labelling by protein stability index? At or over 4 is satisfied, under is not satisfied.

The following sequences have reported results that may help.
Decide: is the reported value of protein stability index for GEREAIQKSVTRSCLLEEEEESGE [POP5] equal to or greater than 4?
satisfied

Decide: is the reported value of protein stability index for ATGFHFNAMTCEGCKGFFRRSMKR [VDR] equal to or greater than 4?
not satisfied

Decide: is the reported value of protein stability index for LPKISDPNFVKDLEEDLYELFKKD [PI4K2A] equal to or greater than 4?
not satisfied

Decide: is the reported value of protein stability index for DVQARLNRSDHGIFHSRTSLQKLS [FCHSD1] equal to or greater than 4?
not satisfied

Decide: is the reported value of protein stability index for FTLKEEKPKMYFMTMIVSLAAVAW [ARL6IP1] equal to or greater than 4?
not satisfied

Others:
Decide: is the reported value of protein stability index for EPFPSSDDSPRSALAAATAAAAAA [SPAG8] equal to or greater than 4?
satisfied

Decide: is the reported value of protein stability index for SKYQLSEAQLSLIRDIRRRGKNKM [NFE2L1] equal to or greater than 4?
not satisfied

Decide: is the reported value of protein stability index for IPDAFWWAVVTMTTVGYGDMKPIT [KCNA4] equal to or greater than 4?
not satisfied

====

# Assay explanation: protein stability index of a GFP-peptide fusion (GPS, HEK-293T) (PSI 1-6); higher = more stable
# Condition: treatment: MLN4924 1 uM, 8 h; c terminus: a fixed tail appended
Would you mind labelling by protein stability index? At or over 3 is T, under is F.

The following sequences have reported results that may help.
Decide: is the reported value of protein stability index for DEEDCPNPEEYNLDEPNAESDYTY [SRPK2] equal to or greater than 3?
T

Decide: is the reported value of protein stability index for YRKKSAEFPDFYDSEEPVSTHQEA [CHGB] equal to or greater than 3?
T

Decide: is the reported value of protein stability index for VLQERVRIFAHKIYLSTSSSKFYD [RHOBTB2] equal to or greater than 3?
F

Others:
Decide: is the reported value of protein stability index for TFVNVYIASFIRGPNPSKLIQQFL [CDS2] equal to or greater than 3?
F

Decide: is the reported value of protein stability index for QNECQVLKLLNHPNVIEYYENFLE [NEK8] equal to or greater than 3?
F

Decide: is the reported value of protein stability index for NLEKTIFCLQKLISLHPFNPWNWG [C8orf76] equal to or greater than 3?
F

Decide: is the reported value of protein stability index for CALGDHGCEHSCVSSEDSFVCQCF [MATN2] equal to or greater than 3?
T
